Target: NAMPT (Homo sapiens, UniProt P43490)
Construct: His tag; host or cells: E. coli
Sequence (P43490 whole entry): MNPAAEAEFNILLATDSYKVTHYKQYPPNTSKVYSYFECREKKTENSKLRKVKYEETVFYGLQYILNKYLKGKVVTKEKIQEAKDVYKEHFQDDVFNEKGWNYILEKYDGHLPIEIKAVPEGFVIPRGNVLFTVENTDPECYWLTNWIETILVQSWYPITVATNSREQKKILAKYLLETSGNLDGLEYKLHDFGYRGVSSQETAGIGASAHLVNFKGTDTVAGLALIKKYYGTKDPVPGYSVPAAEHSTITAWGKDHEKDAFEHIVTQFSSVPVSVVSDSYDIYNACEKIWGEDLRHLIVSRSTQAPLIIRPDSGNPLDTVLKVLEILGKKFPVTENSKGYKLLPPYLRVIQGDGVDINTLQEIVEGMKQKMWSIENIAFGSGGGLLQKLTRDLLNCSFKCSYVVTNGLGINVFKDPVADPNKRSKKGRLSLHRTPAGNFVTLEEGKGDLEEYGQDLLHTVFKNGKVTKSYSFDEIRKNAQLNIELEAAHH
Experiment: Biochemical inhibition assay: NAMPT enzymatic reaction, NMN quantified by mass spectrometry
Details: NAMPT enzymatic reaction; read-out: Biochem IC50
Recorded pIC50, one value per entry.
The scale used: pIC50 is minus the common logarithm of the concentration in molar units.

Solved cases (5 shown):
CCCCOc1ccc(S(=O)(=O)c2ccc(CNC(=O)c3ccc4nccn4c3)cc2)cc1Cl ... 8.39
CCCCOc1ccc(Cl)cc1S(=O)(=O)c1ccc(CNC(=O)c2cnc3nccn3c2)cc1 ... 8.43
CCOc1cccc(S(=O)(=O)c2ccc(CNC(=O)c3cc4ccncc4o3)cc2)c1F ... 7.76
O=C(NCc1ccc(S(=O)(=O)c2cccc(OC(F)(F)F)c2)cc1)c1cc2cnccc2[nH]1 ... 8.30
COc1ccc(Cl)c(S(=O)(=O)c2ccc(CNC(=O)c3cnc4nccn4c3)cc2)c1 ... 8.21

pIC50 in this record for `CCCOc1ccc(S(=O)(=O)c2ccc(CNC(=O)c3cnc4nccn4c3)cc2)cc1Cl` : 8.41

pIC50 in this record for `COc1ccc(S(=O)(=O)c2ccc(CNC(=O)c3ccc4nccn4c3)cc2)c(OC)c1` : 7.24

pIC50 in this record for `CCCOc1cccc(S(=O)(=O)c2ccc(CNC(=O)c3cnc4[nH]ncc4c3)cc2)c1` : 7.52

* * *

Target: NAMPT (Homo sapiens, UniProt P43490)
Construct: His tag; host or cells: E. coli
Assay: Biochemical inhibition assay: NAMPT enzymatic reaction, NMN quantified by mass spectrometry
Details: NAMPT enzymatic assay; read-out: Biochem IC50
Excerpt: Biochemical Inhibition Assay NAMPT Protein Purification Recombinant His-tagged NAMPT was produced in E. coli cells, purified over a Ni column, and further purified over a size-exclusion column by XTAL Biostructures. The NAMPT Enzymatic Reaction […] A mass spectrometry-based assay was used to measure the NAMPT reaction product (NMN) and the internal control (L-Cystathionine). NMN and L-Cystathionine were detected using the services of Biocius Lifesciences with the RapidFire system. […]
pIC50: −log10 of the molar value.
Class t: pIC50 at least 8. Class f: pIC50 below 8.

Ask: Determine whether measured pIC50 meets or exceeds 8 for `O=C(NCc1ccc(S(=O)(=O)c2ccc(C(F)(F)F)cc2)cc1)c1cnc2[nH]ncc2c1`
Reply: f

Ask: Determine whether measured pIC50 meets or exceeds 8 for `O=C(NCc1ccc(S(=O)(=O)c2cncc3ccccc23)cc1)c1cc2ccncc2o1`
Reply: f

Ask: Determine whether measured pIC50 meets or exceeds 8 for `COc1ccc(C(C)C)cc1S(=O)(=O)c1ccc(CNC(=O)c2ccc3nccn3c2)cc1`
Reply: f

Ask: Determine whether measured pIC50 meets or exceeds 8 for `O=C(NCc1ccc(S(=O)(=O)c2cccc(OC(F)(F)F)c2)cc1)c1cnc2[nH]ncc2c1`
Reply: f

Ask: Determine whether measured pIC50 meets or exceeds 8 for `O=C(NCc1ccc(S(=O)(=O)c2cccc(C(=O)NC3CCCC3)c2)cc1)c1cnc2[nH]ncc2c1`
Reply: f

Ask: Determine whether measured pIC50 meets or exceeds 8 for `Cc1nc(-c2cccc(S(=O)(=O)c3ccc(CNC(=O)c4cnc5nccn5c4)cc3)c2)no1`
Reply: t

Ask: Determine whether measured pIC50 meets or exceeds 8 for `O=C(NCc1ccc(S(=O)(=O)c2ccccc2)cc1)c1nc2ccncc2s1`
Reply: f

Ask: Determine whether measured pIC50 meets or exceeds 8 for `COCc1cccc(S(=O)(=O)c2ccc(CNC(=O)c3cc4ccncc4s3)cc2)c1`
Reply: t

Ask: Determine whether measured pIC50 meets or exceeds 8 for `O=C(NCc1ccc(S(=O)(=O)c2ccc3c(c2)OCO3)cc1)c1cnc2[nH]ncc2c1`
Reply: f

Ask: Determine whether measured pIC50 meets or exceeds 8 for `O=C(NCc1ccc(S(=O)(=O)c2cccc3c2OCO3)cc1)c1cnc2[nH]ncc2c1`
Reply: f

Ask: Determine whether measured pIC50 meets or exceeds 8 for `Cc1cc(-n2cccn2)ccc1S(=O)(=O)c1ccc(CNC(=O)c2cnc3[nH]ncc3c2)cc1`
Reply: f

Ask: Determine whether measured pIC50 meets or exceeds 8 for `CN1CCN(c2ccc(S(=O)(=O)c3ccc(CNC(=O)c4cc5ccncc5o4)cc3)cc2)CC1`
Reply: t
